- Tested on: NCI-H526 (variant small cell lung cancer)
- Experiment summary: Anti-proliferative activity, NCI-H526
- Assay type: cell-based
- Test conditions: Homo sapiens, read-out: Cell proliferation, IC50
Observation type: IC50 (nM)

INSERT INTO assay_data (molecule_smiles, assay_result) VALUES
  ('COc1ccc2c(c1)C(c1ccc(Cl)cc1)=N[C@@H](COS(C)(=O)=O)c1nnc(C)n1-2', 2620);

* * *

- Experiment summary: Animal pharmacokinetics in ICR mice
- Assay type: in vivo
- Test conditions: ICR, in vivo; mouse, IV, 10 mg/kg
Observation type: AUC (µM·h)

INSERT INTO assay_data (compound, observation_type, assay_result) VALUES
  ('Cc1nnc2n1-c1ccc(-c3cnn(C)c3)cc1C(c1ccc(Cl)cc1)=N[C@H]2COS(C)(=O)=O [Compound 11]', 'AUC', 20),
  ('COc1ccc2c(c1)C(c1ccc(C#N)cc1)=N[C@@H](COS(C)(=O)=O)c1nnc(C)n1-2 [Compound 7]', 'AUC', 17.3),
  ('COc1ccc2c(c1)C(c1ccc(Cl)cc1)=N[C@@H](COS(N)(=O)=O)c1nnc(C)n1-2 [Compound 8]', 'AUC', 41),
  ('CCS(=O)(=O)OC[C@@H]1N=C(c2ccc(Cl)cc2)c2cc(OC)ccc2-n2c(C)nnc21 [Compound 2]', 'AUC', 73),
  ('COc1ccc2c(c1)C(c1ccc(Cl)cc1)=N[C@@H](COS(C)(=O)=O)c1nnc(C)n1-2 [Compound 1]', 'AUC', 74);

* * *

- Experiment summary: Mouse liver microsomal stability/clearance
- Type: in vitro ADME
- Test conditions: mouse, microsomes
Observation type: microsomal CLint at 1 µM (µL/min/mg)

INSERT INTO results (compound, assay_result) VALUES
  ('Cc1sc2c(c1C)C(c1ccc(Cl)cc1)=N[C@@H](COS(N)(=O)=O)c1nnc(C)n1-2 [Compound 16]', 9),
  ('CNS(=O)(=O)OC[C@@H]1N=C(c2ccc(Cl)cc2)c2c(sc(C)c2C)-n2c(C)nnc21 [Compound 18]', 49),
  ('Cc1sc2c(c1C)C(c1ccc(Cl)cc1)=N[C@@H](COS(=O)(=O)N(C)C)c1nnc(C)n1-2 [Compound 17]', 138);

* * *

- Experiment summary: Pharmacokinetics in beagle dogs
- Assay type: in vivo
- Test conditions: plasma, dog, IV, 3 mg/kg
Observation type: clearance (mL/min/kg)

INSERT INTO results (molecule_smiles, assay_result) VALUES
  ('COc1ccc2c(c1)C(c1ccc(Cl)cc1)=N[C@@H](COS(C)(=O)=O)c1nnc(C)n1-2', 5.6);

* * *

- Experiment summary: Pharmacokinetics in beagle dogs
- Format: in vivo
- Test conditions: plasma, dog, PO, 3 mg/kg
Observation type: AUC (µM·h)

INSERT INTO measurements (compound, observation_type, unit_symbol, assay_result) VALUES
  ('COc1ccc2c(c1)C(c1ccc(Cl)cc1)=N[C@@H](COS(C)(=O)=O)c1nnc(C)n1-2 [Compound 1]', 'AUC', 'µM·h', 17.3);

* * *

- Experimental target: human BRD4 bromodomain 1 (Homo sapiens (Human))
- Experiment summary: Bromodomain binding assay (BRD4 Alpha-screen)
- Test conditions: acetylated histone H4 peptide
Measured IC50, listed per entry.
Observation type: IC50 (nM)

INSERT INTO assay_data (molecule_smiles, observation_type, unit_symbol, assay_result) VALUES
  ('CCS(=O)(=O)OC[C@@H]1N=C(c2ccc(Cl)cc2)c2cc(OC)ccc2-n2c(C)nnc21', 'IC50', 'nM', 220),
  ('Cc1sc2c(c1C)C(c1ccc(Cl)cc1)=N[C@@H](COS(N)(=O)=O)c1nnc(C)n1-2', 'IC50', 'nM', 250),
  ('COc1ccc2c(c1)C(c1ccc(Cl)cc1)=N[C@@H](COS(=O)(=O)N(C)C)c1nnc(C)n1-2', 'IC50', 'nM', 280),
  ('Cc1sc2c(c1C)C(c1ccc(Cl)cc1)=N[C@@H](COS(=O)(=O)N(C)C)c1nnc(C)n1-2', 'IC50', 'nM', 900),
  ('CCCS(=O)(=O)OC[C@@H]1N=C(c2ccc(Cl)cc2)c2cc(OC)ccc2-n2c(C)nnc21', 'IC50', 'nM', 390),
  ('Cc1nnc2n1-c1ccc(-c3cnn(CC(N)=O)c3)cc1C(c1ccc(Cl)cc1)=N[C@H]2COS(C)(=O)=O', 'IC50', 'nM', 110),
  ('COc1ccc2c(c1)C(c1ccc(Cl)cc1)=N[C@@H](COS(N)(=O)=O)c1nnc(C)n1-2', 'IC50', 'nM', 220),
  ('Cc1nnc2n1-c1ccc(-c3cnn(CC(=O)N(C)C)c3)cc1C(c1ccc(Cl)cc1)=N[C@H]2COS(C)(=O)=O', 'IC50', 'nM', 110),
  ('COc1ccc2c(c1)C(c1ccc(Cl)cc1)=N[C@@H](COS(=O)(=O)c1ccccc1)c1nnc(C)n1-2', 'IC50', 'nM', 900),
  ('COc1ccc2c(c1)C(c1ccc(Cl)cc1)=N[C@@H](COS(C)(=O)=O)c1nnc(C)n1-2', 'IC50', 'nM', 190),
  ('Cc1nnc2n1-c1ccccc1C(c1ccc(Cl)cc1)=N[C@H]2COS(C)(=O)=O', 'IC50', 'nM', 1410);

* * *

- Experiment summary: Pharmacokinetics in Sprague Dawley rats
- Format: in vivo, Sprague Dawley (SD) rats
- Test conditions: plasma, rat, IV, 3 mg/kg
Observation type: AUC (µM·h)

INSERT INTO assay_data (compound, observation_type, assay_result) VALUES
  ('COc1ccc2c(c1)C(c1ccc(Cl)cc1)=N[C@@H](COS(C)(=O)=O)c1nnc(C)n1-2 [Compound 1]', 'AUC', 2);

* * *

- Experiment summary: Pharmacokinetics in beagle dogs
- Assay type: in vivo
- Test conditions: plasma, dog, IV, 3 mg/kg
Observation type: AUC (µM·h)

INSERT INTO measurements (molecule_smiles, observation_type, unit_symbol, assay_result) VALUES
  ('COc1ccc2c(c1)C(c1ccc(Cl)cc1)=N[C@@H](COS(C)(=O)=O)c1nnc(C)n1-2', 'AUC', 'µM·h', 19.7);

* * *

- System: MOLT-4 (acute lymphoblastic leukemia)
- Experiment summary: Anti-proliferative activity, MOLT-4
- Format: cell-based
- Test conditions: Homo sapiens, read-out: Cell proliferation, IC50
pIC50: −log10 of the molar value.
Observation type: pIC50

INSERT INTO measurements (molecule, experimental_target, assay_result) VALUES
  ('COc1ccc2c(c1)C(c1ccc(Cl)cc1)=N[C@@H](COS(C)(=O)=O)c1nnc(C)n1-2 [Compound 1]', 'MOLT-4 (acute lymphoblastic leukemia)', 5.58);

* * *

- Experiment summary: Human liver microsomal stability/clearance
- Assay type: in vitro ADME
- Test conditions: human liver microsomes; first value of Human/Mouse cell; read-out: Liver microsomal clearance (Human)
Measured microsomal CLint at 1 µM, listed per entry.
Observation type: microsomal CLint at 1 µM (µL/min/mg)

INSERT INTO assay_data (molecule_smiles, assay_result) VALUES
  ('COc1ccc2c(c1)C(c1ccc(Cl)cc1)=N[C@@H](COS(N)(=O)=O)c1nnc(C)n1-2', 5),
  ('Cc1nnc2n1-c1ccc(-c3cnn(CC(N)=O)c3)cc1C(c1ccc(Cl)cc1)=N[C@H]2COS(C)(=O)=O', 5.6),
  ('COc1ccc2c(c1)C(c1ccc(C#N)cc1)=N[C@@H](COS(C)(=O)=O)c1nnc(C)n1-2', 2.1),
  ('Cc1nnc2n1-c1ccc(-c3cnn(CC(=O)N(C)C)c3)cc1C(c1ccc(Cl)cc1)=N[C@H]2COS(C)(=O)=O', 12.3);

* * *

- Experiment summary: Animal pharmacokinetics in ICR mice
- Format: in vivo
- Test conditions: ICR, plasma; mouse, PO, 10 mg/kg
Observation type: MRT (h)

INSERT INTO results (molecule_smiles, assay_result) VALUES
  ('Cc1sc2c(c1C)C(c1ccc(Cl)cc1)=N[C@@H](COS(C)(=O)=O)c1nnc(C)n1-2', 2.5);

* * *

- Experiment summary: Pharmacokinetics in beagle dogs
- Type: in vivo
- Test conditions: plasma, dog, PO, 3 mg/kg
Observation type: bioavailability (%)

INSERT INTO measurements (molecule_smiles, unit_symbol, assay_result) VALUES
  ('COc1ccc2c(c1)C(c1ccc(Cl)cc1)=N[C@@H](COS(C)(=O)=O)c1nnc(C)n1-2', '%', 92.3);

* * *

- Experiment summary: Animal pharmacokinetics in ICR mice
- Type: in vivo
- Test conditions: ICR, plasma; mouse, PO, 10 mg/kg
Observation type: bioavailability (%)

INSERT INTO results (molecule_smiles, observation_type, assay_result) VALUES
  ('Cc1sc2c(c1C)C(c1ccc(Cl)cc1)=N[C@@H](COS(C)(=O)=O)c1nnc(C)n1-2', 'bioavailability', 105);

* * *

- Tested on: MV4-11 (human leukemia cell line)
- Experiment summary: Anti-proliferative activity test (CellTiter-Glo), MV4-11
- Format: cell-based
- Test conditions: second value of LnCAP/MV4-11 cell, read-out: Cell proliferation IC50 (MV4-11)
pIC50: −log10 of the molar value.
Think of 6 as a floor: if pIC50 stands on it or above, it is true; beneath it, false.

INSERT INTO results (molecule_smiles, category) VALUES
  ('Cc1sc2c(c1C)C(c1ccc(Cl)cc1)=N[C@@H](COS(C)(=O)=O)c1nnc(C)n1-2', 'true'),
  ('CCS(=O)(=O)OC[C@@H]1N=C(c2ccc(Cl)cc2)c2cc(OC)ccc2-n2c(C)nnc21', 'true'),
  ('COc1ccc2c(c1)C(c1ccc(C#N)cc1)=N[C@@H](COS(C)(=O)=O)c1nnc(C)n1-2', 'false'),
  ('Cc1nnc2n1-c1ccc(-c3cnn(C)c3)cc1C(c1ccc(Cl)cc1)=N[C@H]2COS(C)(=O)=O', 'true'),
  ('CNS(=O)(=O)OC[C@@H]1N=C(c2ccc(Cl)cc2)c2cc(OC)ccc2-n2c(C)nnc21', 'true'),
  ('Cc1nnc2n1-c1ccc(-c3cnn(CC(=O)N(C)C)c3)cc1C(c1ccc(Cl)cc1)=N[C@H]2COS(C)(=O)=O', 'true'),
  ('CCCS(=O)(=O)OC[C@@H]1N=C(c2ccc(Cl)cc2)c2cc(OC)ccc2-n2c(C)nnc21', 'false'),
  ('COc1ccc2c(c1)C(c1ccc(Cl)cc1)=N[C@@H](COS(C)(=O)=O)c1nnc(C)n1-2', 'true');

Data provenance: patent US9884874B2
